# TGI values compiled below
tested on: EKVX NSCLC; experiment: NCI tumour cell line growth inhibition, 48 h

[
  {
    "MOLECULE": "CCN(CC)CC(C(=O)Nc1c(C)cccc1C)/C(C)=N/NC(N)=S (stereo not given)",
    "TGI": "> 100 µM"
  },
  {
    "MOLECULE": "COc1cc(NS(C)(=O)=O)ccc1N1Cc2cnc3ccc4[nH]ccc1c4c23",
    "TGI": "> 100 µM"
  },
  {
    "MOLECULE": "CCC1OC(=O)C(C)C(OC2CC(C)(O)C(O)C(C)O2)C(C)C(O)C(C)(O)CC(C)C(=O)C(C)C(O)C1C (stereo not given)",
    "TGI": "> 300 µM"
  },
  {
    "MOLECULE": "CC(=O)CC(=O)Nn1c(-c2cccs2)nc2ccc(I)cc2c1=O",
    "TGI": "> 66.1 µM"
  },
  {
    "MOLECULE": "Nc1c2ccccc2nc2ccc(C(=O)Nc3ccc(S(N)(=O)=O)cc3)cc12",
    "TGI": "> 100 µM"
  },
  {
    "MOLECULE": "CCCCCC1C2C(=O)NC(=O)C1C(=O)NC2=O (stereo not given)",
    "TGI": "> 100 µM"
  },
  {
    "MOLECULE": "O=C1OC2C(O)COC2(OCc2c[nH]c3ccccc23)C1O (stereo not given) (tested in a mixture with another compound)",
    "TGI": "> 100 µM"
  },
  {
    "MOLECULE": "O=c1c2ccccc2nc(-c2ccccc2Cl)n1NC1OC(CO)C(O)C(O)C1O (stereo not given)",
    "TGI": "> 100 µM"
  },
  {
    "MOLECULE": "O=C1c2ccccc2CC1C1(O)C(=O)Nc2c(Cl)cc(Cl)cc21 (stereo not given)",
    "TGI": "> 100 µM"
  },
  {
    "MOLECULE": "Clc1ccc(CCN2CCN(CCCc3ccccc3)CC2)cc1Cl",
    "TGI": "32.9 µM"
  },
  {
    "MOLECULE": "COc1ccc(N=Nc2ccc3oc(=O)c(C(=O)Nc4ccc(OC)cc4)cc3c2)cc1",
    "TGI": "97.7 µM"
  },
  {
    "MOLECULE": "CCCCCCc1cc2cc(C(=O)Nc3cccc(C(F)(F)F)c3)c(=N)oc2cc1O",
    "TGI": "11.6 µM"
  },
  {
    "MOLECULE": "COc1cc(OC)cc(N(C)Cc2cnc3nc(N)nc(N)c3c2C)c1",
    "TGI": "> 100 µM"
  },
  {
    "MOLECULE": "COc1ccc(C2CC(c3ccc(OC)c(OC)c3)=NN2C(=O)c2cc(OC)c(OC)c(OC)c2)cc1 (stereo not given)",
    "TGI": "> 100 µM"
  },
  {
    "MOLECULE": "Cc1cn2cc(-c3ccncc3)nc2s1",
    "TGI": "> 100 µM"
  },
  {
    "MOLECULE": "S=C(N/N=C/c1ccccc1)NC1CC(c2ccccc2)Oc2ccccc21 (stereo not given)",
    "TGI": "> 100 µM"
  },
  {
    "MOLECULE": "COc1ccc(C2Oc3cc(OC)c(O)cc3[C@@H]2C)cc1 (stereo not given in full)",
    "TGI": "> 100 µM"
  },
  {
    "MOLECULE": "CCCCCCCCCCCCOC1C(C(COC2OC(C(O)CO)C3OC(C)(C)OC23)OC(=O)Nc2ccc([N+](=O)[O-])cc2)OC2OC(C)(C)OC21 (stereo not given)",
    "TGI": "6.21 µM"
  },
  {
    "MOLECULE": "N#Cc1c(C#N)c(-c2ccco2)n(/N=C/c2ccco2)c1N",
    "TGI": "> 100 µM"
  },
  {
    "MOLECULE": "COc1ccc(/C=C2\\CC(C)CC3C2=NN(C(C)=O)C3c2ccc(OC)c(OC)c2)cc1OC (stereo not given)",
    "TGI": "70.1 µM"
  }
]

====

system: HCT-15 colon; assay: NCI tumour cell line growth inhibition, 48 h
Reported TGI by item:
RECORDED_METRIC: TGI

[
  {
    "MOLECULE": "CC1CCCC2(O1)OC1CC(=O)OC1C1=C2C(=O)c2ccccc2C1=O (stereo unspecified)",
    "RECORDED_METRIC": "TGI",
    "RECORDED_RESULT": "8.04 µM"
  },
  {
    "MOLECULE": "Cn1cnc2nc(Cl)nc(Cl)c21",
    "RECORDED_METRIC": "TGI",
    "RECORDED_RESULT": "20.7 µM"
  },
  {
    "MOLECULE": "O=C1[C@@H]2C3C=CC([C@H]4C(=O)N(CO)C(=O)[C@@H]34)[C@@H]2C(=O)N1CO",
    "RECORDED_METRIC": "TGI",
    "RECORDED_RESULT": "> 56.7 µM"
  },
  {
    "MOLECULE": "Nc1cc2[nH]c(=O)c3cc(Cl)ccc3c2cc1Cl",
    "RECORDED_METRIC": "TGI",
    "RECORDED_RESULT": "> 100 µM"
  },
  {
    "MOLECULE": "COc1cc(C2C3=C(COC3=O)N(CCO)c3cc4c(cc32)CCC4)cc(OC)c1OC (stereo unspecified)",
    "RECORDED_METRIC": "TGI",
    "RECORDED_RESULT": "> 32.5 µM"
  },
  {
    "MOLECULE": "Cc1[nH]c(=O)nc2c1C(=O)N(C(C)C)C(NC(C)C)S2 (stereo unspecified)",
    "RECORDED_METRIC": "TGI",
    "RECORDED_RESULT": "> 100 µM"
  }
]

====

system: CCRF-CEM leukemia; assay: NCI tumour cell line growth inhibition, 48 h; in the data active = GI50 below about 0.43 µM; inactive = the rest
Outcome codes: true (active), false (inactive)

[
  {
    "COMPOUND": "CCN(CC)CCCC(C)NC(=S)N/N=C(\\C)c1ccccn1 (stereo unspecified)",
    "CLASSIFICATION": "false"
  },
  {
    "COMPOUND": "O=C(/C=C\\c1ccc(Cl)c(Cl)c1)c1ccccc1",
    "CLASSIFICATION": "false"
  },
  {
    "COMPOUND": "CCCCc1ccc(C(N)=O)nc1",
    "CLASSIFICATION": "false"
  },
  {
    "COMPOUND": "COc1ccc(C2CC(c3ccc(OC)c(OC)c3)=NN2C(=O)c2cc(OC)c(OC)c(OC)c2)cc1 (stereo unspecified)",
    "CLASSIFICATION": "false"
  },
  {
    "COMPOUND": "COc1c(C)cnc(Cn2cnc3c(Cl)nc(N)nc32)c1C",
    "CLASSIFICATION": "true"
  },
  {
    "COMPOUND": "Cc1cccc(NC(=O)c2sc3nc4c(cc3c2N)CCC4)c1C",
    "CLASSIFICATION": "true"
  }
]

====

system: NCI-H522 lung; experiment: NCI tumour cell line growth inhibition, 48 h; in the data active = GI50 below about 0.43 µM; inactive = the rest
Outcomes: y (active), n (inactive)

[
  {
    "COMPOUND": "COc1ccc(-c2nccn2-c2cc(OC)c(OC)c(OC)c2)cc1",
    "CLASSIFICATION": "n"
  },
  {
    "COMPOUND": "NCCN.O=N[O-].O=N[O-].O=N[O-].O=N[O-].[Co+3].[K+]",
    "CLASSIFICATION": "n"
  },
  {
    "COMPOUND": "C=C1C(=O)O[C@H]2[C@H]1CC/C(Cn1cc(CNC(=O)c3cc4ccccc4[nH]3)nn1)=C\\CC[C@@]1(C)O[C@@H]21",
    "CLASSIFICATION": "n"
  },
  {
    "COMPOUND": "N#Cc1ccccc1C#C/C=C\\C#Cc1cnccn1",
    "CLASSIFICATION": "n"
  },
  {
    "COMPOUND": "CNCc1ccc(C)c(NC(=O)c2ccc(Nc3nc(-c4ccccc4)c4ccccc4n3)cc2)c1",
    "CLASSIFICATION": "n"
  },
  {
    "COMPOUND": "CC(C)OC(=S)[S-].[Au+].c1ccc([PH+](c2ccccc2)c2ccccc2)cc1",
    "CLASSIFICATION": "y"
  },
  {
    "COMPOUND": "COc1ccc(C2CC(c3ccc(OC)c(OC)c3)=NN2C(=O)c2cc(OC)c(OC)c(OC)c2)cc1 (stereo not drawn)",
    "CLASSIFICATION": "n"
  },
  {
    "COMPOUND": "CCOC(=O)C(Cc1ccc(N(CCCl)CCCl)cc1)NC(=O)C(CC(C)C)NC(C)=O (stereo not drawn)",
    "CLASSIFICATION": "n"
  },
  {
    "COMPOUND": "CN1CCN(Cc2ccc(NC(=O)c3cncc(C#Cc4c(N)ncc5ccc(F)cc45)c3)cc2C(F)(F)F)CC1",
    "CLASSIFICATION": "n"
  },
  {
    "COMPOUND": "COc1ccc(/C=C2\\CN(Cc3cn(CCCNc4ccnc5cc(Cl)ccc45)nn3)C/C(=C\\c3ccc(OC)cc3)C2=O)cc1",
    "CLASSIFICATION": "n"
  },
  {
    "COMPOUND": "COc1ccc(C(=O)CC(Cl)=C(Cl)Cl)cc1",
    "CLASSIFICATION": "n"
  },
  {
    "COMPOUND": "COc1ccc2c(c1)CCC1C2CCC2(C)C1CC[C@@]2(O)CNC(=O)/C=C/c1ccc(O)c(O)c1 (stereo partly drawn)",
    "CLASSIFICATION": "n"
  },
  {
    "COMPOUND": "C#Cc1cccc(NC(=O)Nc2cccc(NC(=O)CCl)c2)c1",
    "CLASSIFICATION": "n"
  }
]
